Listed here: items and their measured koff.
- test_system: human IL-6 (human, UniProt P05231 30-212)
- Sequence (P05231 30-212 limits assumed): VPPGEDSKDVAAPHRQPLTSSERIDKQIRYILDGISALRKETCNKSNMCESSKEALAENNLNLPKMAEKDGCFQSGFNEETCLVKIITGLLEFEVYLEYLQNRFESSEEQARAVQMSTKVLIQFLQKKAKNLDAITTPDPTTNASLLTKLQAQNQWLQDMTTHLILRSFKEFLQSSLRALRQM
- test_method_notes: SPR Biacore, supernatant, Protein A capture, 37 C

binder: Anti-IL-6 antibody, heavy chain S35H, G66D, L100E / light chain M32L, M50D, N52S, M88Q (antibody, IgG1, V domains shown, IgG1; variable domains only; VL is variant III) VH: EVQLVESGGGLVQPGGSLRLSCAASGFTFSPFAMHWVRQAPGKGLEWVAKISPGGSWTYYSDTVTDRFTFSLDTSKSTAYLQMNSLRAEDTAVYYCARQEWGYYALDIWGQGTLVTVSS VL: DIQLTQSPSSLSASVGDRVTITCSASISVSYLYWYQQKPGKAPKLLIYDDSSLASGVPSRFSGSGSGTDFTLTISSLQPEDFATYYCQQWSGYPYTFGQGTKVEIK
endpoint_unit: s⁻¹
koff: 0.00145
--
binder: Anti-IL-6 antibody, heavy chain S35H, G66D, L100V / light chain M32L, M50D, N52S, M88Q (antibody, IgG1, V domains shown, IgG1; variable domains only; VL is variant III) VH: EVQLVESGGGLVQPGGSLRLSCAASGFTFSPFAMHWVRQAPGKGLEWVAKISPGGSWTYYSDTVTDRFTFSLDTSKSTAYLQMNSLRAEDTAVYYCARQVWGYYALDIWGQGTLVTVSS VL: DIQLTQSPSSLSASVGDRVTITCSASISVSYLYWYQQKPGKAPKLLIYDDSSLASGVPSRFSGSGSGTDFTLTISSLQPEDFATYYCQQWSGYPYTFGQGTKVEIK
endpoint_unit: s⁻¹
koff: 0.000922
--
binder: Anti-IL-6 antibody, heavy chain S35H, G66D, L100R / light chain M32L, M50D, N52S, M88Q (antibody, IgG1, V domains shown, IgG1; variable domains only; VL is variant III) VH: EVQLVESGGGLVQPGGSLRLSCAASGFTFSPFAMHWVRQAPGKGLEWVAKISPGGSWTYYSDTVTDRFTFSLDTSKSTAYLQMNSLRAEDTAVYYCARQRWGYYALDIWGQGTLVTVSS VL: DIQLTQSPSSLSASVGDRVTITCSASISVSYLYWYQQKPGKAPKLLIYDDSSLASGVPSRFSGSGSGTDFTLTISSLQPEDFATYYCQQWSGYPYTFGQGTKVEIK
endpoint_unit: s⁻¹
koff: 0.00116
--
binder: Anti-IL-6 antibody, heavy chain WT / light chain WT (antibody, IgG1, V domains shown, IgG1; variable domains only; also called parent; wild-type) VH: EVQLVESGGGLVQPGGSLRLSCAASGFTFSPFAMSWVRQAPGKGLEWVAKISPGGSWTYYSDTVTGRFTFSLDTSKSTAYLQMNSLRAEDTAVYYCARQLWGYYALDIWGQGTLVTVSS VL: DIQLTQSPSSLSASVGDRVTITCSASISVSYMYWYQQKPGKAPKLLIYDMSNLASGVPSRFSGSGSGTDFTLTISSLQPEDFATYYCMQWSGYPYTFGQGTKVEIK
endpoint_unit: s⁻¹
koff: 0.000559
--
binder: Anti-IL-6 antibody, heavy chain S35H, G66D, Q99P / light chain M32L, M50D, N52S, M88Q (antibody, IgG1, V domains shown, IgG1; variable domains only; VL is variant III) VH: EVQLVESGGGLVQPGGSLRLSCAASGFTFSPFAMHWVRQAPGKGLEWVAKISPGGSWTYYSDTVTDRFTFSLDTSKSTAYLQMNSLRAEDTAVYYCARPLWGYYALDIWGQGTLVTVSS VL: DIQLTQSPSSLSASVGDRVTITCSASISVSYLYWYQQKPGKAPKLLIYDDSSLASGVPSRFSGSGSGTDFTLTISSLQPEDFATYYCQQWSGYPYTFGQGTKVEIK
endpoint_unit: s⁻¹
koff: 0.00169

Just for reference, patent US20240209076A1 is where these values come from.
